The measurements presented in this section are drawn from patent US9745297B2.

Target: RORγt (Homo sapiens)
Experiment: RGA Assay: nuclear receptor transactivation assay, RORγt transactivation of a luciferase reporter
Details: transiently transfected HEK 293 cells (pGL4.3 luc2P/GAL4UAS, pBIND Gal4DBD hRORC LBD), 20-24 hours incubation, luciferase readout
readout: pIC50
Reminder that pIC50 is minus the log10 of a molar concentration.

GET /values?readout=pIC50&item= CCNC(=O)c1ccc(-c2ccc3c(n2)C2(CCCC2)CN3C(=O)NCc2ccc(S(C)(=O)=O)cc2)c(C)c1
5.37

Returns the measured pIC50 for the input compound. Input: CCS(=O)(=O)c1ccc(CNC(=O)N2CC3(CCCC3)c3nc(-c4c(C)ncnc4C(F)(F)F)ccc32)cc1
6.44

Field request: pIC50 | item: CNS(=O)(=O)c1ccc(CNC(=O)N2CC3(CCCC3)c3cc(-c4ccc(F)cc4C)ncc32)cc1
5.59

What value of pIC50 has been recorded for this entry: CNS(=O)(=O)c1ccc(CNC(=O)N2CC(C)(C)c3nc(-c4ccc(F)cc4C)ccc32)cc1
5.00

Returns the measured pIC50 for the input compound. Input: CCS(=O)(=O)c1ccc(CNC(=O)N2CC3(CCCC3)c3nc(-c4c(OC)ncnc4C4CC4)ccc32)cc1
6.46

Which pIC50 value is on record for CCS(=O)(=O)N1CCC(CNC(=O)N2CC3(CCCC3)c3nc(-c4c(OC)ncnc4C4CC4)ccc32)CC1 ?
4.82

Tell me the measured pIC50 of CCc1ncnc(C2CC2)c1-c1ccc2c(n1)C1(CCCC1)CN2C(=O)NCc1ccc(S(=O)(=O)CC)cc1 , please.
6.66

Please report the recorded pIC50 for COc1ccc(-c2ccc3c(n2)C2(CCCC2)CN3C(=O)NCc2ccc(C#N)cc2)c(C(F)(F)F)c1 .
5.39

Requested field: pIC50. Item: CCS(=O)(=O)c1ccc(CNC(=O)N2CC3(CCCC3)c3nc(-c4cnc(N(C)C)nc4C(F)(F)F)ccc32)cc1
5.92

What does the data say about its pIC50? Entry: CCS(=O)(=O)c1ccc(CNC(=O)N2CC3(CCCC3)c3nc(-c4c(C)ncnc4C4CC4)ccc32)cc1
6.42

Looking for the measured pIC50 of CCS(=O)(=O)c1ccc(CNC(=O)N2CC3(CCCC3)c3nc(-c4cc(CN5CC[C@@H](O)C5)ccc4C4CC4)ccc32)cc1 , can you help?
5.15

Need pIC50, item CCS(=O)(=O)c1ccc(CNC(=O)N2CC3(CCCC3)c3nc(-c4ccc(OC)cc4C(F)(F)F)ccc32)cc1
6.32

###

Molecular target: RORγt (Homo sapiens)
Sequence (P51449 269-508 limits assumed): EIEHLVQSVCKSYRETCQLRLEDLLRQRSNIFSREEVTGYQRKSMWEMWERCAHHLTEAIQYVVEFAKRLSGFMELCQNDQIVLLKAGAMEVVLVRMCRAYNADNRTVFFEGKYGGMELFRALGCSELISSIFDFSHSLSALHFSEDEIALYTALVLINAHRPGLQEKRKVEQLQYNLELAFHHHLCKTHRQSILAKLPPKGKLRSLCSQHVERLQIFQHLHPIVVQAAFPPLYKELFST
Assay: RGA Assay: nuclear receptor transactivation assay, RORγt transactivation of a luciferase reporter
Conditions: transiently transfected HEK 293 cells (pGL4.3 luc2P/GAL4UAS, pBIND Gal4DBD hRORC LBD), 20-24 hours incubation, luciferase readout
readout: pIC50
FYI, pIC50 means -log10 of a concentration in mol per litre.

Any idea what its pIC50 is? The molecule is Cc1cc(F)ccc1-c1ccc2c(n1)C1(CCCC1)CN2C(=O)NCc1ccc(S(C)(=O)=O)cc1
5.07

# get_value(readout='pIC50', item= COc1ncnc(C2CC2)c1-c1ccc2c(n1)C(C)(C)CN2C(=O)NCc1ccc(S(C)(=O)=O)cc1 )
5.40

Would you kindly share the measured pIC50 for CCOc1ncnc(C2CC2)c1-c1ccc2c(n1)C1(CCCC1)CN2C(=O)NCc1ccc(S(=O)(=O)CC)cc1 ?
6.12

# pIC50 lookup, item COc1cc(C)c(-c2ccc3c(n2)C(C)(C)CN3C(=O)NCc2ccc(S(C)(=O)=O)cc2)cn1
5.00

Entry CNS(=O)(=O)c1ccc(CNC(=O)N2CC(C)(C)c3nc(-c4c(OC)ncnc4C4CC4)ccc32)cc1 has what pIC50?
5.62

Entry under review: CCS(=O)(=O)c1ccc(CNC(=O)N2CC3(CCCC3)c3cc(-c4c(OC)ncnc4C4CC4)ncc32)cc1 . Reported pIC50?
6.13

Data request, read-out pIC50, for CC(C)c1ncncc1-c1ccc2c(n1)C(C)(C)CN2C(=O)NCc1ccc(S(C)(=O)=O)cc1
4.72

// lookup pIC50 for COc1cc(C)c(-c2ccc3c(n2)C2(CCCC2)CN3C(=O)NCc2ccc(S(C)(=O)=O)cc2)cn1
5.10

# lookup: pIC50 of CCS(=O)(=O)c1cnc(CNC(=O)N2CC3(CCCC3)c3nc(-c4c(OC)ncnc4C4CC4)ccc32)nc1
6.14

Report pIC50 for CCC1(C)CN(C(=O)NCc2ccc(S(=O)(=O)CC)cc2)c2ccc(-c3cncnc3C(C)C)nc21 (centres unmarked) please.
5.55

Item CCS(=O)(=O)c1ccc(CNC(=O)N2CC3(CCCC3)c3nc(-c4cnc(OC)cc4C)ccc32)cc1 has what recorded pIC50?
5.28

Quick check: pIC50 of Cc1cc(O)ccc1-c1ccc2c(n1)C1(CCCC1)CN2C(=O)NCc1ccc(S(C)(=O)=O)cc1 ?
5.85

So what does the record say about pIC50 for CS(=O)(=O)c1ccc(CNC(=O)N2CC3(CCCC3)c3nc(-c4cnc(C#N)nc4C4CC4)ccc32)cc1 ?
4.74

GET /values?readout=pIC50&item= CNS(=O)(=O)c1ccc(CNC(=O)N2CC3(CCCC3)c3nc(-c4cncnc4C(C)C)ccc32)cc1
5.96

For the molecule CNS(=O)(=O)c1ccc(CNC(=O)N2CC(C)(C)c3nc(-c4cncnc4C(C)C)ccc32)cc1 , what pIC50 is on record?
5.04

For CCS(=O)(=O)c1ccc(CNC(=O)N2CC3(CCCC3)c3nc(-c4c(C5CC5)ncnc4C4CC4)ccc32)cc1 , what is its reported pIC50?
6.70
